procedure.summary: Elution rate in aqueous solutions of various pH and physiological saline solution
Type: physicochemical
measurement.setup: physiological saline solution; general description
Protocol: After 40 ml of Japan Pharmacopoeia 1st solution (pH 1.2) was placed in a vessel whose temperature was kept constant in a thermostat at 37° C., 200 mg of TMS-19-Q was added and the mixture was stirred by a magnetic stirrer. […] Then, Japan Pharmacopoeia 2nd solution were mixed with the 1st solution, and by using aqueous solutions whose pH values were adjusted to be 2, 3, 4 and 5 and a physiological saline solution, respectively, elution rate of each thereof was measured. […]
value.kind: elution rate in physiological saline solution (summary)

molecule: CCC(=O)OC1CC(=O)OC(C)C/C=C/C=C/C(OC(C)=O)C(C)CC(CC=O)C(OC2OC(C)C(OC3CC(C)(OC(C)=O)C(OC(=O)CC)C(C)O3)C(N(C)C)C2O)C1OC (stereo not drawn)
obs.value: less than 15%
--
molecule: CCC(=O)O[C@H]1/C=C/C=C/C[C@@H](C)OC(=O)C[C@@H](OC(C)=O)[C@H](OC)[C@@H](O[C@@H]2O[C@H](C)[C@@H](O[C@H]3C[C@@](C)(O)[C@@H](OC(=O)CC(C)C)[C@H](C)O3)[C@H](N(C)C)[C@H]2O)[C@@H](CC=O)C[C@H]1C
obs.value: less than 15%
--
molecule: CCC(=O)OC1CC(=O)OC(C)C/C=C/C=C/C(O)C(C)CC(CC=O)C(OC2OC(C)C(OC3CC(C)(O)C(OC(=O)CC)C(C)O3)C(N(C)C)C2O)C1OC (stereo not drawn)
obs.value: less than 15%

# credit: patent US4716153A
